Molecular target: Amine oxidase [flavin-containing] A (Homo sapiens, UniProt P21397)
Sequence (P21397 whole entry): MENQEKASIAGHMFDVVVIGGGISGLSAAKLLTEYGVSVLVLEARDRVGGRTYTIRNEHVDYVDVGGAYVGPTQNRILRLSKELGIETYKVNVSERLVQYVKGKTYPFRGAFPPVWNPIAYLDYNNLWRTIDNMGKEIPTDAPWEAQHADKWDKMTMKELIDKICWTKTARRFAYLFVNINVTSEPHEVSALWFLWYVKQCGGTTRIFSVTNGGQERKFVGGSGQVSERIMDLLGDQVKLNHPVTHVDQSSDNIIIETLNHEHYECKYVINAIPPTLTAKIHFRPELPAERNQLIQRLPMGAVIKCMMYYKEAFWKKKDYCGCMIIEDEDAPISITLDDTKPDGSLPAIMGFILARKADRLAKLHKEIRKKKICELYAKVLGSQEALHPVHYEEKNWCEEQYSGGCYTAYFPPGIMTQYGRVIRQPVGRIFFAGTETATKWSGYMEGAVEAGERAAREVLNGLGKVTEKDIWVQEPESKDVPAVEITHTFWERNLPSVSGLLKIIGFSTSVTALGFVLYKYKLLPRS
Experiment: Competitive inhibition of human MAO-A
metric.name: Ki (µM)
Report only the number, with the unit µM understood.

Task: // query Ki value for entry `CC1=C(C)C(=O)c2cc(C)ccc2C1=O`
Result: 6
